Experiment: viability gain of MRP-1-high H69AR cells under doxorubicin, pilot screen, MRP-1 activator project, CellTiter-Glo, duplicate (AID 807);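 also: compound pretreatment 18-22 h then 72 h combined with doxorubicin; 0% = doxorubicin alone and 100% = vehicle without doxorubicin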
Details: H69AR viability with doxorubicin, CellTiter-Glo luminescence; at 10 µM; hits give high values
property-name: viability increase (%)
Numbers only, in %.

# map each compound to its viability increase
1. O=C(O)c1cc(Cl)c(Cl)cc1C(=O)N1CCOCC1
2. COc1ccc(OC)c(NC2c3ccccc3C(=O)N2Cc2ccc3c(c2)OCO3)c1 (stereo not drawn)
3. COc1ccccc1C(=O)Nc1ccc2oc(-c3ccc(F)cc3)nc2c1
4. N#CC1=C2SCN(c3ccc(F)cc3)CN2C(=O)CC1c1cccc(F)c1 (stereo not drawn)
5. O=C(NCc1ccco1)c1ccc(S(=O)(=O)c2cccc(S(=O)(=O)N3CCOCC3)c2)cc1
6. Cc1ccc(CCN2C(=O)CCC2(C)C(=O)NC2CCCC2)cc1 (stereo not drawn)

-0.17
-0.47
-2.78
-2.71
-4.28
-4.22

###

Assay: growth suppression of beta-catenin knockout HCT116, pilot screen, human colon tumor cells (AID 823);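 also: 0% = wells killed by 20 µM Hyamine and 100% = untreated DMSO cell wells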
Conditions: CellTiter-Glo, 60 h, at 10 µM, hits give low values
Inconclusive results are not listed.
property-name: viability (%)
One number for each entry, in %.

These recorded examples may help you get a feel for the data.
compound	viability, %
COc1ccc(O)c(-c2[nH]ncc2C(=O)c2ccccc2)c1	101
CC(=O)c1c(C)[nH]c(C(=O)N2CCN(c3ncccn3)CC2)c1C	86.8
Nc1cc(=O)[nH]c(SCc2nc3ccccc3n2Cc2ccccc2)n1	90.4
CCCCN(CC)CCNC(=O)c1cc2c(=O)n(C)c3ccccc3c2n1C	49
O=C(CC1SC(=Nc2ccccc2)N(CCCO)C1=O)Nc1ccc(Cl)cc1 (configuration not stated)	48.1
COc1ccccc1CNC(=O)C1CCN(S(=O)(=O)c2cccc3cccnc23)CC1	108

Turning to the following compound.
The recorded viability for entry COc1ccc(-c2nc(CSCC(=O)N3CCN(C4CCCCC4)CC3)c(C)o2)cc1OC equals 87.8

###

Assay: viability gain of MRP-1-high H69AR cells under doxorubicin, pilot screen, MRP-1 activator project, CellTiter-Glo, duplicate (AID 807);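 also: compound pretreatment 18-22 h then 72 h combined with doxorubicin; 0% = doxorubicin alone and 100% = vehicle without doxorubicin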
Details: H69AR viability with doxorubicin, CellTiter-Glo luminescence; at 10 µM; hits give high values
property-name: viability increase (%)
Answers are plain numbers, in %.

molecule	number
CC(=O)C1=C(O)C(=O)N(c2nnn(C)n2)C1c1cccs1 (stereo not drawn)	-1.76
CCSC1=C(C#N)C(c2ccccc2C)CC(=O)N1 (stereo not drawn)	-2.22
O=C(CCSc1ccccc1)NCCSc1ccccn1	-2.49

# map each molecule to its viability increase
1. Cc1occc1-c1nc(-c2ccccn2)no1
2. c1ccc2c(c1)nc1n2CCN1CCNC1CCCCC1
3. Cc1ccc(NC(=O)C2C3C=CC4(CN(Cc5cccnc5)C(=O)C24)O3)cc1 (stereo not drawn)
4. Cc1onc(-c2c(F)cccc2Cl)c1C(=O)OCC(=O)Nc1c(C)n(C)n(-c2ccccc2)c1=O
5. O=C(Nc1cc(=O)c2ccccc2o1)N1CCOCC1

-4.5
-1.96
-1.21
-0.55
-2.39

###

Experiment: growth suppression of beta-catenin knockout HCT116, pilot screen, human colon tumor cells (AID 823);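 also: 0% = wells killed by 20 µM Hyamine and 100% = untreated DMSO cell wells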
Conditions: CellTiter-Glo, 60 h, at 10 µM, hits give low values
Results filed as inconclusive are left out.
Would you mind telling me the reported viability of each entry?
Answers are plain numbers, in %.

molecule	unit-annotation	viability
Cc1ccc(-c2nnc(N3CCCCC3)c3ccccc23)cc1S(=O)(=O)N1CCN(C)CC1	%	48

# map each molecule to its viability
1. N#CCCN1CCN(S(=O)(=O)c2ccc(S(=O)(=O)N3CCCC3)cc2)CC1
2. CCOC(=O)CNC(=O)C(NC(=O)C1CCC(C)CC1)C(C)CC (stereo not drawn)
3. CCOC(=O)c1ccc(Nc2nnc(C(C)(C)C)c(=O)[nH]2)cc1

[101, 98.8, 49.6]

# map each molecule to its viability
1. Cc1noc(C(=O)N2CCN(c3ccc(F)cc3)CC2)c1Cl
2. COc1ccc2c(=O)c(N3C(=O)c4ccccc4C3=O)c(C)oc2c1
3. Cn1nc(-c2ccc(Cl)cc2)c2cc(C(=O)N3CCCC3)sc21
4. O=C1CNC(=O)/C1=C\N1CCN(C(c2ccccc2)c2ccccc2)CC1

1. 105
2. 94.2
3. 96.9
4. 99.2

###

Would you mind telling me the reported growth inhibition of each entry?
Test: OD615 S. cerevisiae growth inhibition, permissive medium, pilot counter-assay, permissive growth control for S. cerevisiae lifespan shortening project (AID 705)
Conditions: OD615, 24 h, at 10 µM, hits give high values
Answers are plain numbers, in %.

These recorded examples may help you get a feel for the data.
molecule	growth inhibition (%)
CCOc1cc(C(=O)NCCN2CCOCC2)cc(OCC)c1OCC	-5.59
O=C(CC1c2ccccc2Oc2ccccc21)N1CCN(c2ccccn2)CC1	-16.3
Nc1nc(SCC(=O)NCCCO)nc2sc3c(c12)CCC3	-8.84
CC(=O)C1C(c2ccc(OC(F)F)cc2)NC(=O)NC1(O)C(F)(F)F (stereo not given)	3.71

# map each molecule to its growth inhibition
1. O=C(Cc1cc(=O)[nH]c(=O)[nH]1)N1CCC(Cc2ccccc2)CC1
2. CC12CCC(C(=O)NCc3ccco3)(OC1=O)C2(C)C (stereo not given)
3. O=C1NCCCC1C(=O)N1CCN(C(c2ccccc2)c2ccccc2)CC1 (stereo not given)

0.795
-9.57
6.11

# map each molecule to its growth inhibition
1. C=C(C)CSc1nnc(-c2ccc(OC)c(OC)c2)n1N
2. CC1=C(C(=O)OC(C)C)C(c2cccs2)n2ncnc2N1 (stereo not given)
3. O=C(C1CCCN(S(=O)(=O)c2ccccc2)C1)N1CCCCCC1 (stereo not given)
4. O=C(Cn1c(=O)oc2cc(S(=O)(=O)N3CCCC3)ccc21)N1CCN(c2ccccn2)CC1
5. CCOC(=O)N1CCC(N2CC34C=CC(O3)C(C(=O)Nc3ccc(C(C)C)cc3)C4C2=O)CC1 (stereo not given)
6. Cn1c(=O)c2c(nc(N3CCN(Cc4ccccc4)CC3)n2CCSc2ncccn2)n(C)c1=O
7. COCCNC(=O)CN1CCOc2ccccc21

[11.8, -1.96, -1.18, 4.62, 2.48, -9.24, -22.5]

###

Test: growth suppression of PTEN-deleted HCT116, pilot screen, cell-based, HCT116 clonal line, CellTiter-Glo (AID 824);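 also: 0% = 20 µM Hyamine control and 100% = vehicle cell control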
Conditions: 60 h, at 10 µM, hits give low values
Results filed as inconclusive are left out.
Would you mind telling me the reported viability of each entry?
Give bare numbers, in %.

These recorded examples may help you get a feel for the data.
compound	number
COc1ccc(OC)c(NC(=O)c2c(NC(=O)CNCc3ccco3)sc3c2CCC3)c1	88.2
Cn1c(=O)c2c(SCC(=O)N3CCC(Cc4ccccc4)CC3)nc(C3CC3)nc2n(C)c1=O	88.1
Cc1cc2oc(C(=O)NCc3ccncc3)c(C)c2cc1C	89.6
COc1ccc(N(CC(=O)Nc2nccs2)S(=O)(=O)c2c(C)nn(C)c2C)cc1	87.5

# map each compound to its viability
1. CC(=O)c1sc(NC(=O)c2ccco2)nc1-c1ccccc1
2. CCOc1ccccc1C1CC(c2ccc(F)cc2)Nc2nc(N)nn21 (stereo unspecified)
3. COC(=O)c1ccc2[nH]c(C)cc(=O)c2c1
4. O=C(CSc1nccn1-c1ccc(Cl)cc1)NCc1ccc2c(c1)OCO2
5. O=C(COc1ccc(F)cc1)Nc1nccs1
6. CN(Cc1ccccc1)C(=O)CCC(=O)N(C)Cc1ccccc1
7. COc1cccc(-n2nnc3c(=O)n(Cc4cccc(C)c4)cnc32)c1

1. 87.7
2. 90.1
3. 90.9
4. 89.5
5. 90.2
6. 90.2
7. 89.7

###

Test: inhibitors of the yeast RAM network, pilot screen, dse1pr::URA3 reporter, 5-FOA selection (AID 869);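 also: 0% = DMSO wells with no growth and 100% = 10 µM 1-NA-PP1 with full growth; RAM network block rescues cells from 5-FOA so hits raise OD615 growth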
Details: S. cerevisiae dse1pr::URA3 5-FOA growth, OD615, 2 d; at 10 µM; hits give high values; strain carries analog-sensitive mutant Cbk1 kinase
Would you mind telling me the reported inhibition of each entry?
Numbers only, in %.

compound	unit-annotation	number
COCC(=O)Nc1ccc(C(N)=O)cc1	%	1.91

# map each compound to its inhibition
1. COc1ccc(-c2nc(CS(=O)CC(=O)NCc3cccnc3)c(C)o2)cc1OC (stereo not drawn)
2. CCOC(=O)Cn1nc(C)c(-c2ccccc2)c1N

1: 1.42; 2: 1.26

###

Assay: growth suppression of PTEN-deleted HCT116, pilot screen, cell-based, HCT116 clonal line, CellTiter-Glo (AID 824);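 also: 0% = 20 µM Hyamine control and 100% = vehicle cell control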
Details: 60 h, at 10 µM, hits give low values
Inconclusive results are not listed.
Would you mind telling me the reported viability of each entry?
One number for each entry, in %.

These recorded examples may help you get a feel for the data.
compound	number
Cc1cccc(CN2CCN(CC(=O)NCc3ccc(F)cc3)C2=O)c1	104
CCOc1ccc(C(=O)Nc2c3c(nn2-c2cccc(C)c2C)CS(=O)C3)cc1 (stereo not drawn)	96.2
CCOC(=O)CC1C(=O)NCCN1Cc1cccc(C(F)(F)F)c1 (stereo not drawn)	86
O=C(Cn1cnc2c(cnn2-c2ccccc2)c1=O)c1ccc(Cl)cc1	90.2
CC(=O)CC(=O)Nc1cccc2c1CCCC2	91.5

# map each compound to its viability
1. Cc1ccnc(N2C(=O)c3ccccc3C2Nc2ccccc2Cl)c1 (stereo not drawn)
2. CCN(c1cccc(C)c1)c1ncnc2nc[nH]c12
3. O=C1c2ccccc2NC(c2ccc3c(c2)OCCO3)N1c1ccc2c(c1)OCCO2 (stereo not drawn)
4. C=C(C)Cn1c(COc2ccccc2)nnc1SCC(=O)O

1: 92.5; 2: 95.9; 3: 79.5; 4: 90.6

# map each compound to its viability
1. CC(C)c1nnc(NC(=O)CN2C(=O)c3ccccc3C2=O)s1
2. Cc1ccc(-c2nnc3n2N=C(c2ccc(Br)cc2)CS3)cc1
3. CCc1nnc(NC(=O)c2ccc(N3C(=O)CCC3=O)cc2)s1
4. CCn1cc(C2N3CC4(C)CN2CC(C)(C3)C4=O)c2ccccc21 (stereo not drawn)

[89.1, 90.5, 94.7, 100]
